pIC50 overview
- assayed target: human JAK3 kinase domain (JH1) (Homo sapiens)
- Construct: recombinantly generated catalytic kinase (also known as JH1) domain of human JAK1, JAK2, JAK3 and TYK2
- Sequence (P52333 822-1111 limits assumed): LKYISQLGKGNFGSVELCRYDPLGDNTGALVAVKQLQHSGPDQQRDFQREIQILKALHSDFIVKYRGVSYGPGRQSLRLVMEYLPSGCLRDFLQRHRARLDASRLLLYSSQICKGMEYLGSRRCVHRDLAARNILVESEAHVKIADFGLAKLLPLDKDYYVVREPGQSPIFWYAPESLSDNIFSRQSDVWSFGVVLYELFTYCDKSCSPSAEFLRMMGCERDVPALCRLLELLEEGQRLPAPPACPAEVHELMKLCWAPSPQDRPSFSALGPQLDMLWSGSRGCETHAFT
- experiment notes: JH1 biochemical assay for JAK3 (ADP-Glo kinase assay, recombinant JH1 catalytic domain, JAK3-974 peptide, 4 μM ATP)
- stated conditions: JH1 kinase domain, ADP-Glo
pIC50: −log10 of the molar value.

[ask] Could you share which pIC50 value was measured for `C[C@@H]1CN(c2nc(-c3cnn(C45CC(C4)C5)c3)cn3ncc(F)c23)C(=O)[C@]1(C#N)C1CC1` ?
[reply] > 7.00

* * *

- assayed target: human JAK2 kinase domain (JH1) (Homo sapiens)
- Construct: recombinantly generated catalytic kinase (also known as JH1) domain of human JAK1, JAK2, JAK3 and TYK2
- Sequence (O60674 849-1124 limits assumed): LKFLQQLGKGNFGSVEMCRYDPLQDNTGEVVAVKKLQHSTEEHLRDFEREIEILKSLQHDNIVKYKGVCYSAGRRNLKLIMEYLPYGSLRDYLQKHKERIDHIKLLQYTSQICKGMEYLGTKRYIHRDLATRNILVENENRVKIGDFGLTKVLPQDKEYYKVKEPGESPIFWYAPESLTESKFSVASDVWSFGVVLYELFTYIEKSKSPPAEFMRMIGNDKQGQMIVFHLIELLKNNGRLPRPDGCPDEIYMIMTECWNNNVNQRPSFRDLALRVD
- experiment notes: JH1 biochemical assay for JAK2 (ADP-Glo kinase assay, recombinant JH1 catalytic domain, JAK3-974 peptide, 15 μM ATP)
- stated conditions: JAK2 JH1, ADP-Glo
pIC50: −log10 of the molar value. Structures can show the parent of a compound that is named as a salt.
quantity: pIC50

> print(dat)
                                   molecule                            assayed.target    test.value
1  C[C@@H]1CN(c2nc(-c3cccc(F)n3)cn3nccc23)C(=O)[C@]1(C#N)C1CC1 [Example 255, trifluoroacetate]  human JAK2 kinase domain (JH1) (Homo sapiens)        < 5.00
2  Cc1cnn(-c2cc3nccc(N4C[C@@H](C)[C@@](C#N)(C5CC5)C4=O)c3o2)c1  human JAK2 kinase domain (JH1) (Homo sapiens)  5.30 to 6.00

Alright, here's another molecule for you.
[ask] Missing value: pIC50, human JAK2 kinase domain (JH1) (Homo sapiens), entry `C[C@@H]1CN(c2nc(-c3cnn(C4COC4)c3)cc3ncsc23)C(=O)[C@]1(C#N)C1CC1` . Fill in?
[reply] > 7.00
